Value source: PubChem BioAssay (NCATS)

# Target system: Rap guanine nucleotide exchange factor 3 (Homo sapiens) (UniProt O95398)
# Sequence (O95398 whole entry, looked up): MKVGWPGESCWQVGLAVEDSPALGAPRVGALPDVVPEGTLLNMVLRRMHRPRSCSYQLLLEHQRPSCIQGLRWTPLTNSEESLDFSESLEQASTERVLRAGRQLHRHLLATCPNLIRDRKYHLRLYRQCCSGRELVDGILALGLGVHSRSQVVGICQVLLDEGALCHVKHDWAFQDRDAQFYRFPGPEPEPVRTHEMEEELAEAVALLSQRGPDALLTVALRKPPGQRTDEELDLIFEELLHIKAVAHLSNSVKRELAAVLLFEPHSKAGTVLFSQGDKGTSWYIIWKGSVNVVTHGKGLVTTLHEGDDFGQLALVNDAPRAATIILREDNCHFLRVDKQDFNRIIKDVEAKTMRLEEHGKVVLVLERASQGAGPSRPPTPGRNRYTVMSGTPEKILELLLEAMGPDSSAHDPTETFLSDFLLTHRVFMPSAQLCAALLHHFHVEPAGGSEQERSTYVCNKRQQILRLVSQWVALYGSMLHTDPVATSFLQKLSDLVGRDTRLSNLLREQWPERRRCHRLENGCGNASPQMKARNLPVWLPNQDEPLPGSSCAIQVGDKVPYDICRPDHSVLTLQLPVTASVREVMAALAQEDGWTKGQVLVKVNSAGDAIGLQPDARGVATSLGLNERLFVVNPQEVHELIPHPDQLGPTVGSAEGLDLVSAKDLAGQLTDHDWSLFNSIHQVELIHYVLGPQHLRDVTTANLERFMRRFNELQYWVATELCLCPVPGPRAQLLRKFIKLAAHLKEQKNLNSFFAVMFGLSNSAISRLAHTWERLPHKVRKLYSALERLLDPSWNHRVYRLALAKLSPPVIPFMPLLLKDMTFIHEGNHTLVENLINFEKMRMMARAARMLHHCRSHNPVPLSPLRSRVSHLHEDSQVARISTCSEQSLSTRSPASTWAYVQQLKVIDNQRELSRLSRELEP
# Assay text: Confirmatory qHTS for antagonist of cAMP-regulated guanine nucleotide exchange factor 3 (EPAC1) (AID 1645880); note: nearly all actives have a fitted effect of over 55% in size
# Measurement conditions: EPAC1 Rap1B-BODIPY-GDP exchange, fluorescence; series mostly up to 115 µM
Inconclusive results are not listed. Calls of active or inactive are those of the source. Calls come from the whole dose curve; as a rule, active = well fitted inhibition curve with a large enough effect; inconclusive = small, poorly fitted or top-dose-only effect; inactive = no such curve, though single readings can be large or run the other way.
Hi! Could you answer with just one of these? active, inactive

Example results:
Compound	Group label
CCSc1nc2ccccc2c(=O)n1C1CCOC(C)(C)C1 (stereo unspecified)	inactive
Nc1c(C(=O)c2ccccc2)sc2nsc(SCCN3CCOCC3)c12	inactive

IN: Short answer needed: outcome of this test for "N#Cc1c(-c2ccccc2)nc(SCc2ccc(Cl)cc2)[nH]c1=O" ?
OUT: active

IN: Short answer needed: outcome of this test for "CCOC(=O)C1CCN(C(=O)c2cccc(S(=O)(=O)N(CC)c3ccccc3)c2)CC1" ?
OUT: inactive

IN: Short answer needed: outcome of this test for "Cc1nn(CCc2nc(-c3ccco3)cs2)c2[nH]c(=O)cc(C(F)(F)F)c12" ?
OUT: inactive

IN: Short answer needed: outcome of this test for "CCCCOC(=O)CSc1nnc(-c2ccc(Cl)cc2Cl)o1" ?
OUT: inactive

IN: Short answer needed: outcome of this test for "Cc1ccc(Cl)c2c1N[C@@H](c1ccc(C(=O)O)cc1)[C@H]1CC=C[C@@H]21" ?
OUT: active

IN: Short answer needed: outcome of this test for "Cc1cc(C)n2[nH]c(=O)c(N=Nc3ccc(S(N)(=O)=O)cc3)c2n1" ?
OUT: inactive

###

# Target system: Rap guanine nucleotide exchange factor 4 (Homo sapiens)
# Assay text: Confirmatory qHTS for agonist of cAMP-regulated guanine nucleotide exchange factor 4 (EPAC2) (AID 1645884);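 note: nucleotide exchange releases bodipy-GDP from Rap1 and this lowers its fluorescence; % is set by controls: 0 for no effect and ±100 for the full control effect; nearly all actives have a fitted effect of over 65% in size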
# Measurement conditions: EPAC2 GEF activity, Rap1B-BODIPY-GDP fluorescence; series mostly up to 154 µM
Results filed as inconclusive are left out. The source made the active and inactive calls. Calls follow the shape of the dose curve; as a rule, active = well fitted activation curve with a large enough effect; inconclusive = small, poorly fitted or top-dose-only effect; inactive = no such curve, though single readings can be large or run the other way.
Endpoint label: activation

Compound	Endpoint label	Observed measurement
COC(=O)c1cc2occc2n1Cc1ccc(F)cc1Cl	activation	inactive
Cc1nc(Cl)sc1C(=O)NC(C)c1ccc(Cl)cc1 (stereo unspecified)	activation	inactive
O=C1c2cc(O)c(O)cc2OC(c2ccc(O)c(O)c2)C1O (stereo unspecified)	activation	inactive
C#C[C@]1(OC(C)=O)CCC2C3CCC4=CC(=O)CC[C@@H]4C3CC[C@@]21C (stereo partly specified)	activation	inactive

###

# Target system: Cytochrome P450 3A4 (Homo sapiens) (UniProt P08684)
# Sequence (P08684 whole entry, looked up): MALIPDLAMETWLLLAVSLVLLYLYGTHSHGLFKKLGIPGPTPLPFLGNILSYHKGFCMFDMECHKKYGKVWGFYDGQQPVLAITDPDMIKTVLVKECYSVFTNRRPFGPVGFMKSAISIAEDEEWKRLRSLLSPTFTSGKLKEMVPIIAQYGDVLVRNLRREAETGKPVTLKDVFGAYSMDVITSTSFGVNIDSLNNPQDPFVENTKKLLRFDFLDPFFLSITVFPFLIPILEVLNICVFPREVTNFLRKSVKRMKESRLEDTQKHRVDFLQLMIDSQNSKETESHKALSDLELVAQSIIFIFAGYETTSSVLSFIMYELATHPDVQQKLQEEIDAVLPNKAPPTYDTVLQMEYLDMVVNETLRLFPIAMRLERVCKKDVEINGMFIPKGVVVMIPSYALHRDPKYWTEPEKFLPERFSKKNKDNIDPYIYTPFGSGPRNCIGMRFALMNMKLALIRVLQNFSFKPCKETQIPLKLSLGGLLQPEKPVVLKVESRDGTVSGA
# Assay text: qHTS Assay for Inhibitors and Substrates of Cytochrome P450 3A4 (AID 884); note: nearly all actives have a fitted effect of over 50% in size
# Measurement conditions: recombinant CYP3A4, Luciferin-PPXE luminescence; series mostly up to 57.1 µM
Results filed as inconclusive are left out. The source made the active and inactive calls. Calls come from the whole dose curve; as a rule, active = well fitted inhibition curve with a large enough effect; inconclusive = small, poorly fitted or top-dose-only effect; inactive = no such curve, though single readings can be large or run the other way.
Hi! Could you answer with just one of these? active, inactive

Example results:
Molecule	Group label
CC(CCC(=O)O)C1CCC2C3CC(O)[C@@H]4CC(O)CC[C@]4(C)C3CC[C@@]12C (some centres undefined)	inactive
CNC1C(O)C(O)C(CO)O[C@H]1OC1C(O[C@@H]2C(O)C(O)[C@@H](N=C(N)N)C(O)C2N=C(N)N)OC(C)[C@]1(O)C=O (some centres undefined)	inactive

IN: Short answer needed: outcome of this test for COc1cc(-c2coc3cc(O[C@H]4OC(CO)C(O)C(O)C4O)c(OC)c(O)c3c2=O)cc(O)c1OC (some centres undefined) ?
OUT: inactive

IN: Short answer needed: outcome of this test for CC(C)CCCC(C)C1CCC2C3CC[C@H]4CC(=O)CC[C@@]4(C)C3CC[C@@]12C (some centres undefined) ?
OUT: inactive

IN: Short answer needed: outcome of this test for "COc1cc2c(cc1OC)Cc1cc(OC)c(OC)cc1Cc1cc(OC)c(OC)cc1C2" ?
OUT: active

IN: Short answer needed: outcome of this test for CC1=C(CCC(=O)O)c2cc3nc(cc4[nH]c(cc5[nH]c(cc1n2)c(C)c5C(C)O)c(C)c4C(C)O)C(C)=C3CCC(=O)O (centres undefined) ?
OUT: inactive

IN: Short answer needed: outcome of this test for COC1=CC(C)C2CC3OC(=O)CC4C(C)=C(OC)C(=O)C([C@]2(C)C1=O)[C@]34C (some centres undefined) ?
OUT: inactive

IN: Short answer needed: outcome of this test for "COc1ccc(CC(=O)c2ccc(O)cc2O)cc1" ?
OUT: active

IN: Short answer needed: outcome of this test for C=C1C2=CC(=O)OC(c3ccoc3)[C@]2(C)CCC1[C@]1(C)C=CC(=O)C(C)(C)C1CC(=O)OC (some centres undefined) ?
OUT: active

IN: Short answer needed: outcome of this test for Nc1nc2c([nH]c(=S)n2C2OC(CO)C(O)C2O)c(=O)[nH]1 (centres undefined) ?
OUT: inactive

IN: Short answer needed: outcome of this test for "COc1ccc(CNc2ncncc2-c2ccccc2CN(C)C)c(OC)c1" ?
OUT: active

###

# Assay text: qHTS Assay for Lipid Storage Modulators (AID 1519)
# Measurement conditions: Drosophila S3 cells, BODIPY lipid droplet/cell ratio, laser cytometry; measured here: lipid channel max response; cells loaded with oleic acid
Records with an inconclusive call do not appear.
Endpoint label: max response (%)
Report the value in % with no unit label.

Examples with their reported max response follow.
Compound	max response [%]
CN1CCCN=C1/C=C\c1cccs1	-6.06
COC(=O)C(N)CS (stereo not given)	22.7
CN(C)CCCO[C@H]1[C@@H]2OC(C)(C)O[C@@H]2O[C@@H]1[C@H](O)CO	-0.368
C[C@H]1C[C@]2(O[C@@H]2C)C(=O)O[C@@H]2CCN(C)C/C=C(/COC(=O)[C@]1(C)O)C2=O	-21.3

IN: Form field: reported max response of "CC(=O)S[C@H]1CC2=CC(=O)CC[C@@]2(C)[C@H]2CC[C@@]3(C)[C@H](CC[C@]34CCC(=O)O4)[C@@H]12"
OUT: -20.4

IN: Form field: reported max response of C[C@]12C=CC(=O)C=C1CCC1C2C(O)C[C@]2(C)C1CC[C@]2(O)C(=O)CO (stereo not given in full)
OUT: 24.5

IN: Form field: reported max response of CC(=O)OCC(=O)[C@@]1(O)CCC2C3CCC4=CC(=O)CC[C@]4(C)C3C(O)C[C@]21C (stereo not given in full)
OUT: 18.3

IN: Form field: reported max response of "CN(C)CC/C=C1/c2ccccc2COc2ccccc21"
OUT: 10.6

IN: Form field: reported max response of C=C(C)C1(O)OC(=O)C=C1OC (stereo not given)
OUT: -2.01

IN: Form field: reported max response of "C=C1C[C@@]23C[C@@]1(O)CC[C@@H]2[C@]12C=C[C@@H](O)[C@](C)(C(=O)O1)[C@@H]2[C@@H]3C(=O)O"
OUT: 0.595

IN: Form field: reported max response of CCC(C)C(=O)OC1CC(O)C=C2C=CC(C)C(CCC(O)CC(O)CC(=O)O)C21 (stereo not given)
OUT: 17.6

###

# Test system: ICS
# Assay text: qHTS profiling for inhibitors of Plasmodium falciparum proliferation (AID 504749);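 note: 0% = DMSO vehicle and full inhibition = artemisinin control; nearly all actives have a fitted effect of over 60% in size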
# Measurement conditions: P. falciparum in erythrocytes, SYBR Green DNA, 72 h; series mostly up to 12.8 µM
# Protocol: NIH National Institute of Allergy and Infectious Diseases [NIAID] NIH Chemical Genomics Center [NCGC] […] Because mature erythrocytes lack DNA, only Plasmodium-derived DNA is detected. NCGC Assay Protocol Summary: The SYBR Green viability assay was adapted from a method described previously (Plouffe et al., 2008). […] The following morning, fluorescence intensity at 485(14) nm excitation and 535(25) nm emission wavelengths was measured on an EnVision (Perkin Elmer) plate reader. […]
Results filed as inconclusive are left out. Activity calls are given as the source filed them. The call rests on the fitted dose curve; in most records, active means well fitted inhibition curve with a large enough effect; inconclusive means small, poorly fitted or top-dose-only effect; inactive means flat fitted curve, though single readings scatter.
Hi! Could you answer with just one of these? active, inactive

Example results:
Compound	Target system	Group label
C[C@]1(c2ccccc2)OC(C(=O)O)=CC1=O	ICS	inactive
CN1CCO[C@H](c2ccccc2)c2ccccc2C1	ICS	inactive
COc1ccc2cc(C(C)CO)ccc2c1 (centres undefined)	ICS	inactive
CCOC(=O)O[C@@H](C)OC(=O)[C@@H]1N2C(=O)[C@@H](NC(=O)[C@@H](N)c3ccccc3)[C@H]2SC1(C)C	ICS	inactive
Nc1nc2ncc(CNc3ccc(C(=O)NC(CCC(=O)O)C(=O)O)cc3)nc2c(=O)[nH]1 (centres undefined)	ICS	inactive

Could you now look at the following compound, please?
IN: Short answer needed: outcome of this test for CN(C)CCc1c[nH]c2ccc(CC3COC(=O)N3)cc12 (centres undefined) ?
OUT: inactive

###

# System: CP191
# Assay text: qHTS profiling for inhibitors of Plasmodium falciparum proliferation (AID 504749);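 note: 0% = DMSO vehicle and full inhibition = artemisinin control; nearly all actives have a fitted effect of over 60% in size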
# Measurement conditions: P. falciparum in erythrocytes, SYBR Green DNA, 72 h; series mostly up to 12.8 µM
Inconclusive results are not listed. Active and inactive are the calls of the source. The call rests on the fitted dose curve; in most records, active means well fitted inhibition curve with a large enough effect; inconclusive means small, poorly fitted or top-dose-only effect; inactive means flat fitted curve, though single readings scatter.
Hi! Could you answer with just one of these? 1 (active), -1 (inactive)

IN: Short answer needed: outcome of this test for "CCN[C@@H]1C[C@H](N)[C@H](O[C@H]2OC(CN)=CC[C@H]2N)[C@@H](O)[C@H]1O[C@H]1OC[C@@](C)(O)[C@@H](NC)[C@@H]1O" ?
OUT: -1

IN: Short answer needed: outcome of this test for "CC[N+](CC)(CC)CC[C@](O)(c1ccccc1)C1CCCCC1" ?
OUT: -1

IN: Short answer needed: outcome of this test for "CC(=O)OCC(=O)[C@@]1(O)[C@H](C)C[C@@H]2[C@H]3CCC4=CC(=O)C=C[C@]4(C)[C@]3(F)[C@@H](O)C[C@@]21C" ?
OUT: -1

IN: Short answer needed: outcome of this test for CC(=O)[C@]1(O)CCC2C3C=C(Cl)C4=CC(=O)C5CC5[C@@]4(C)C3CC[C@]21C (some centres undefined) ?
OUT: -1

IN: Short answer needed: outcome of this test for "COc1ccc2c(c1)N(C[C@@H](C)CN(C)C)c1ccccc1S2" ?
OUT: -1
